// values below are reported Ki
tested_on: UniProt P48067
Sequence (P48067 1-706): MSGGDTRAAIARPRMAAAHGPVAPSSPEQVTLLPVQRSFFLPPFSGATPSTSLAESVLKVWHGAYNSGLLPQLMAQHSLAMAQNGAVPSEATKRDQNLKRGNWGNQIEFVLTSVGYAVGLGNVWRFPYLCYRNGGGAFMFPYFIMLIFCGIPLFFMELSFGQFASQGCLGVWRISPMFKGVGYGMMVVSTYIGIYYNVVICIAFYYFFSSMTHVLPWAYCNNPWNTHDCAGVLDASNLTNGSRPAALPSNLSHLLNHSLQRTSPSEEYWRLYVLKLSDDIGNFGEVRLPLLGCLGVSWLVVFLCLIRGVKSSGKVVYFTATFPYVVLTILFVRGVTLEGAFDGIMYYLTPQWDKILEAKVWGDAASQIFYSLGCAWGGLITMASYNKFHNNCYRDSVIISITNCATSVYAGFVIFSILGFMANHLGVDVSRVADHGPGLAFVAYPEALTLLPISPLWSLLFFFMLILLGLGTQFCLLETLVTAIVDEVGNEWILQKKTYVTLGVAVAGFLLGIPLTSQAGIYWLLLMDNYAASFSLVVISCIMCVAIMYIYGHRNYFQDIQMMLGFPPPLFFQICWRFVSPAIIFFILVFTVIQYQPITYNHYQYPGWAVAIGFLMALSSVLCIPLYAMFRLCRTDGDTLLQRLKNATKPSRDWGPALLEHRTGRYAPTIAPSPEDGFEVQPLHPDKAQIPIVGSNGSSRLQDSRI
assay_name: Radioligand binding assays using recombinant CHO cell membranes expressing human GlyT1
measurement_conditions: Ki, radioligand binding to human GlyT1c transporter-expressing CHO cell membranes

Here is how some molecules turned out for Ki.
C[C@H]1C[C@H](C)OC([C@H]2CN(S(=O)(=O)c3cn(C)cn3)C[C@@H]2Nc2cccc(OC(F)(F)F)c2)O1 (stereo partly shown) : ≤ 0.01 µM
CN1CCCCC1C1CN(S(=O)(=O)c2cn(C)cn2)CC1Nc1cccc(OC(F)(F)F)c1 (stereo not shown) : ≤ 0.01 µM
Cn1cnc(S(=O)(=O)N2CC(c3ccccc3)C3(COC(=O)N3Cc3ccc(C(F)(F)F)cc3)C2)c1 (stereo not shown) : ≤ 10 µM

Now consider the entry below.
// map Cn1cnc(S(=O)(=O)N2C[C@H](NC(c3ccccc3)C(F)(F)F)[C@@H](c3ccc(F)cc3)C2)c1 (stereo partly shown) to recorded Ki (system: UniProt P48067)
≤ 10 µM

====

tested_on: human GlyT1c transporter (Homo sapiens, UniProt P48067)
Sequence (P48067 1-706): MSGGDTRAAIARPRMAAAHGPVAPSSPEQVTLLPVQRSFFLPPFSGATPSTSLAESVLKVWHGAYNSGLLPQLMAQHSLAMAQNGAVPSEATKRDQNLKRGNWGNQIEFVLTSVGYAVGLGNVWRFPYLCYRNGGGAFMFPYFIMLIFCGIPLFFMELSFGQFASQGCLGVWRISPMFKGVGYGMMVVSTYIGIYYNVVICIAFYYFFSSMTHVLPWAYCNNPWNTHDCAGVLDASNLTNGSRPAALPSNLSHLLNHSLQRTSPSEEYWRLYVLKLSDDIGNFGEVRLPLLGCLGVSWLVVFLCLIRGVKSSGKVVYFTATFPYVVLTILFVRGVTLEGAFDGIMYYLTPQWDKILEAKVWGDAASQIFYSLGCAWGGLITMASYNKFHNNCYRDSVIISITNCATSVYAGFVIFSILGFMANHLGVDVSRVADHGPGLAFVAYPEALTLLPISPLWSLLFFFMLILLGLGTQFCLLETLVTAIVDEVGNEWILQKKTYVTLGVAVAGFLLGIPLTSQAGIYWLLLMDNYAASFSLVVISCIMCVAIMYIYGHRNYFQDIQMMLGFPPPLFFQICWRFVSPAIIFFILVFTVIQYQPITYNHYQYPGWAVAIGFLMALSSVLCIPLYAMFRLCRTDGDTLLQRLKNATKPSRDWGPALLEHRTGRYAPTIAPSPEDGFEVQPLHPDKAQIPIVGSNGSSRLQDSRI
assay_name: Radioligand binding assays using recombinant CHO cell membranes expressing human GlyT1
measurement_conditions: Ki, radioligand binding to human GlyT1c transporter-expressing CHO cell membranes
// values below are reported Ki

Cn1cnc(S(=O)(=O)N2CC(Nc3cccc(OC(F)(F)F)c3)C(N3CCCCC3)C2)c1 (stereo not drawn) [Example 913] : ≤ 0.01 µM
Cn1cnc(S(=O)(=O)N2C[C@@H](c3ccccc3)[C@](C)(Nc3cc(C(F)(F)F)ccn3)C2)c1 (relative stereo) [Example 388] : ≤ 0.1 µM
Cn1cnc(S(=O)(=O)N2C[C@@H](Nc3ccc(OC(F)(F)F)c(C#N)c3)[C@H](c3ccccc3)C2)c1 (racemic) [Example 102] : ≤ 1 µM
Cn1cnc(S(=O)(=O)N2C[C@H](NCc3ccc(C(F)(F)F)cc3Cl)[C@@H](C3OCCCO3)C2)c1 [Example 904] : ≤ 0.01 µM
Cn1cnc(S(=O)(=O)N2CC(C(=O)NCc3ccc(F)c(Cl)c3)C3(CCCCC3)C2)c1 (stereo not drawn) [Example 881] : ≤ 1 µM
Cn1cnc(S(=O)(=O)N2CC(Cc3cccc(C(F)(F)F)c3)C(C3OCCCO3)C2)c1 (stereo not drawn) [Example 918] : ≤ 1 µM

Using the record for Cn1cnc(S(=O)(=O)N2C[C@H](NCc3cnc(Br)s3)[C@@H](c3ccccc3)C2)c1 [Example 438] , report its Ki.
≤ 1 µM

Using the record for Cn1cnc(S(=O)(=O)N2C[C@H](NCc3cccc(OC(F)(F)F)c3)[C@@H](C3OCCCO3)C2)c1 [Example 905] , report its Ki.
≤ 1 µM

Numbers sourced from patent US9650334B2.
